What viability, T/C was measured for each of the following?
Test system: 996289-038-R-J1-PDC spheroid viability
EXPERIMENT DESCRIPTION: Anticancer human tumor 996289-038-R-J1-PDC patient-derived colon adenocarcinoma cell line growth inhibition [PI3K]
EXPERIMENTAL CONDITIONS: second compound 3.16 µM; first compound 1 µM; stronger effect = lower value; spheroids with HUVEC and MSC
Numbers only here, please. The scale is %.

Lookup: What value of viability, T/C has been recorded for this entry: C[C@@H](NC(=O)c1ncnc(N)c1Cl)c1ncc(C(=O)Nc2cc(C(F)(F)F)c(Cl)cn2)s1 + CC(Nc1ncnc2nc[nH]c12)c1cc2cccc(Cl)c2c(=O)n1-c1ccccc1
Found: 119

Lookup: Check CC(Cn1ccc(-c2ccc(C#N)c(Cl)c2)n1)NC(=O)c1cc(C(C)O)[nH]n1 (stereo not drawn) + Cc1nc(NC(=O)N2CCCC2C(N)=O)sc1-c1ccnc(C(C)(C)C(F)(F)F)c1 too.
Found: 66.7

Lookup: Check CC1(C)CCC(Nc2ncc(C(F)(F)F)c(-c3c[nH]c4c(P(C)(C)=O)c(C#N)ccc34)n2)CN1 (stereo not drawn) + Cc1nc(NC(=O)N2CCCC2C(N)=O)sc1-c1ccnc(C(C)(C)C(F)(F)F)c1 too.
Found: 58.7

###

Tested on: 996289-038-R-J1-PDC spheroid viability
EXPERIMENT DESCRIPTION: Anticancer human tumor 996289-038-R-J1-PDC cell line growth inhibition [PI3K];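 further: luminescence used as a proxy for viable cell amount; spheroids exposed to compounds for seven days before viability read; percent viability relative to DMSO vehicle control as 100%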
EXPERIMENTAL CONDITIONS: second compound 0.0316 µM; first compound 0.000316 µM; stronger effect = lower value; spheroids with HUVEC and MSC
OBSERVED PROPERTY: viability, T/C

Lookup: What value of viability, T/C has been recorded for this entry: CC(=O)c1c(C)c2cnc(Nc3ccc(N4CCNCC4)cn3)nc2n(C2CCCC2)c1=O + COc1c(OCCCN2CCOCC2)ccc2c3n(c(=NC(=O)c4cnc(N)nc4)nc12)CCN3
Found: 66.1%

Lookup: Check CC(C)n1nc(-c2ccc3oc(N)nc3c2)c2c(N)ncnc21 + CC(Nc1ncnc2nc[nH]c12)c1cc2cccc(Cl)c2c(=O)n1-c1ccccc1 too.
Found: 107%

Lookup: Check Cn1ncnc1[C@H]1c2n[nH]c(=O)c3cc(F)cc(c23)N[C@@H]1c1ccc(F)cc1 + Cc1nc(NC(=O)N2CCCC2C(N)=O)sc1-c1ccnc(C(C)(C)C(F)(F)F)c1 too.
Found: 120%

Lookup: Check Cn1ncnc1[C@H]1c2n[nH]c(=O)c3cc(F)cc(c23)N[C@@H]1c1ccc(F)cc1 + COc1c(OCCCN2CCOCC2)ccc2c3n(c(=NC(=O)c4cnc(N)nc4)nc12)CCN3 too.
Found: 87.8%

Lookup: Check Cn1ncnc1[C@H]1c2n[nH]c(=O)c3cc(F)cc(c23)N[C@@H]1c1ccc(F)cc1 + CC(Nc1ccc2c(c1)OCCn1cc(N3C(=O)OCC3C(F)F)nc1-2)C(N)=O too.
Found: 114%

Lookup: Check CC(=O)c1c(C)c2cnc(Nc3ccc(N4CCNCC4)cn3)nc2n(C2CCCC2)c1=O + Cc1nc(NC(=O)N2CCCC2C(N)=O)sc1-c1ccnc(C(C)(C)C(F)(F)F)c1 too.
Found: 99.8%

###

What viability, T/C was measured for each of the following?
Tested on: 996289-038-R-J1-PDC spheroid viability
EXPERIMENT DESCRIPTION: Anticancer human tumor 996289-038-R-J1-PDC cell line growth inhibition [PI3K];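 further: luminescence used as a proxy for viable cell amount; spheroids exposed to compounds for seven days before viability read; percent viability relative to DMSO vehicle control as 100%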
EXPERIMENTAL CONDITIONS: second compound 0.316 µM; first compound 0.1 µM; stronger effect = lower value; spheroids with HUVEC and MSC
Numbers only here, please. The scale is %.

Lookup: Form field: viability, T/C recorded for CCCS(=O)(=O)Nc1ccc(F)c(C(=O)c2c[nH]c3ncc(-c4ccc(Cl)cc4)cc23)c1F + CC(Nc1ccc2c(c1)OCCn1cc(N3C(=O)OCC3C(F)F)nc1-2)C(N)=O with 996289-038-R-J1-PDC spheroid viability (enter value)
Found: 74.3

Lookup: Check Cn1ncnc1[C@H]1c2n[nH]c(=O)c3cc(F)cc(c23)N[C@@H]1c1ccc(F)cc1 + CC(Nc1ccc2c(c1)OCCn1cc(N3C(=O)OCC3C(F)F)nc1-2)C(N)=O too.
Found: 68.7

Lookup: Check CCN1CCN(Cc2ccc(Nc3ncc(F)c(-c4cc(F)c5nc(C)n(C(C)C)c5c4)n3)nc2)CC1 + CC(Nc1ccc2c(c1)OCCn1cc(N3C(=O)OCC3C(F)F)nc1-2)C(N)=O too.
Found: 54.7

###

What viability, T/C was measured for each of the following?
Test system: 996289-038-R-J1-PDC spheroid viability
EXPERIMENT DESCRIPTION: Anticancer human tumor 996289-038-R-J1-PDC cell line growth inhibition [PI3K];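 further: luminescence used as a proxy for viable cell amount; spheroids exposed to compounds for seven days before viability read; percent viability relative to DMSO vehicle control as 100%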
EXPERIMENTAL CONDITIONS: second compound 0.00316 µM; first compound 0.1 µM; stronger effect = lower value; spheroids with HUVEC and MSC
Numbers only here, please. The scale is %.

Lookup: What value of viability, T/C has been recorded for this entry: CC1(C)CCC(CN2CCN(c3ccc(C(=O)NS(=O)(=O)c4ccc(NCC5CCOCC5)c([N+](=O)[O-])c4)c(Oc4cnc5[nH]ccc5c4)c3)CC2)=C(c2ccc(Cl)cc2)C1 + COc1c(OCCCN2CCOCC2)ccc2c3n(c(=NC(=O)c4cnc(N)nc4)nc12)CCN3
Found: 97.1

Lookup: Check CCCS(=O)(=O)Nc1ccc(F)c(C(=O)c2c[nH]c3ncc(-c4ccc(Cl)cc4)cc23)c1F + CC(Nc1ccc2c(c1)OCCn1cc(N3C(=O)OCC3C(F)F)nc1-2)C(N)=O too.
Found: 89.7

Lookup: Check CNC(=O)c1ccc(N2C(=S)N(c3ccc(C#N)c(C(F)(F)F)c3)C(=O)C2(C)C)cc1F + COc1c(OCCCN2CCOCC2)ccc2c3n(c(=NC(=O)c4cnc(N)nc4)nc12)CCN3 too.
Found: 92.2

Lookup: Check CCN1CCN(Cc2ccc(Nc3ncc(F)c(-c4cc(F)c5nc(C)n(C(C)C)c5c4)n3)nc2)CC1 + CC(Nc1ccc2c(c1)OCCn1cc(N3C(=O)OCC3C(F)F)nc1-2)C(N)=O too.
Found: 84.8

Lookup: Check Cn1ncc(Cl)c1-c1cc(C(=O)NC(CN)Cc2cccc(F)c2)sc1Cl (stereo unspecified) + COc1c(OCCCN2CCOCC2)ccc2c3n(c(=NC(=O)c4cnc(N)nc4)nc12)CCN3 too.
Found: 93.6

Lookup: Check C#Cc1c(F)ccc2cc(O)cc(-c3ncc4c(N5CC6CCC(C5)N6)nc(OCC56CCCN5CC(F)C6)nc4c3F)c12 (stereo unspecified) + CC(Nc1ccc2c(c1)OCCn1cc(N3C(=O)OCC3C(F)F)nc1-2)C(N)=O too.
Found: 81.2

Lookup: Check CC(Cn1ccc(-c2ccc(C#N)c(Cl)c2)n1)NC(=O)c1cc(C(C)O)[nH]n1 (stereo unspecified) + CC(Nc1ccc2c(c1)OCCn1cc(N3C(=O)OCC3C(F)F)nc1-2)C(N)=O too.
Found: 108

Lookup: Check C=CC(=O)N1CCN(c2nc(=O)n(-c3c(C)ccnc3C(C)C)c3nc(-c4c(O)cccc4F)c(F)cc23)C(C)C1 (stereo unspecified) + CC(Nc1ccc2c(c1)OCCn1cc(N3C(=O)OCC3C(F)F)nc1-2)C(N)=O too.
Found: 92.7

Lookup: Check C[C@@H](NC(=O)c1ncnc(N)c1Cl)c1ncc(C(=O)Nc2cc(C(F)(F)F)c(Cl)cn2)s1 + COc1c(OCCCN2CCOCC2)ccc2c3n(c(=NC(=O)c4cnc(N)nc4)nc12)CCN3 too.
Found: 88

Lookup: Check CCN1CCN(Cc2ccc(Nc3ncc(F)c(-c4cc(F)c5nc(C)n(C(C)C)c5c4)n3)nc2)CC1 + COc1c(OCCCN2CCOCC2)ccc2c3n(c(=NC(=O)c4cnc(N)nc4)nc12)CCN3 too.
Found: 97.2

Lookup: Check Cn1nccc1Nc1nccc(-c2ccn(C(CO)c3ccc(Cl)c(F)c3)c(=O)c2)n1 (stereo unspecified) + COc1c(OCCCN2CCOCC2)ccc2c3n(c(=NC(=O)c4cnc(N)nc4)nc12)CCN3 too.
Found: 82.6

###

System: 996289-038-R-J1-PDC spheroid viability
EXPERIMENT DESCRIPTION: Anticancer human tumor 996289-038-R-J1-PDC cell line growth inhibition [PI3K];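 further: luminescence used as a proxy for viable cell amount; spheroids exposed to compounds for seven days before viability read; percent viability relative to DMSO vehicle control as 100%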
EXPERIMENTAL CONDITIONS: second compound 0.1 µM; first compound 10 µM; stronger effect = lower value; spheroids with HUVEC and MSC
What viability, T/C was measured for each of the following?
Numbers only here, please. The scale is %.

Lookup: What value of viability, T/C has been recorded for this entry: CC(C)NCC(C(=O)N1CCN(c2ncnc3c2C(C)CC3O)CC1)c1ccc(Cl)cc1 (stereo not drawn) + CC(Nc1ncnc2nc[nH]c12)c1cc2cccc(Cl)c2c(=O)n1-c1ccccc1
Found: 69.4

Lookup: Check CCCS(=O)(=O)Nc1ccc(F)c(C(=O)c2c[nH]c3ncc(-c4ccc(Cl)cc4)cc23)c1F + CC(Nc1ncnc2nc[nH]c12)c1cc2cccc(Cl)c2c(=O)n1-c1ccccc1 too.
Found: 22.2

Lookup: Check CNC(=O)c1ccc(N2C(=S)N(c3ccc(C#N)c(C(F)(F)F)c3)C(=O)C2(C)C)cc1F + COc1c(OCCCN2CCOCC2)ccc2c3n(c(=NC(=O)c4cnc(N)nc4)nc12)CCN3 too.
Found: 65.9
